Molecular target: human CXCR3-A receptor (Homo sapiens (Human), UniProt P49682)
Sequence (P49682 whole entry): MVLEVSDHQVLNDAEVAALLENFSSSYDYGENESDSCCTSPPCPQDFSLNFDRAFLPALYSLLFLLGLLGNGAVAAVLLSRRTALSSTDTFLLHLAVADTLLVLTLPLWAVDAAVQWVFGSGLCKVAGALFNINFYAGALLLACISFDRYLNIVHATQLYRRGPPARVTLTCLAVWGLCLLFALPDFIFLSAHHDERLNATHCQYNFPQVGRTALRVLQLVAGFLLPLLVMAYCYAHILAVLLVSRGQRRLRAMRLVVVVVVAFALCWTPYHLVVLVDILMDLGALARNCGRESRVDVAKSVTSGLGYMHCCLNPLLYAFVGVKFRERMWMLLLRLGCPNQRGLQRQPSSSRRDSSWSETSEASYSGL
Assay: 125I-CXCL10 competition radioligand binding assay
Details: displacement of 125I-CXCL10 from membranes of CHO cells expressing human recombinant CXCR3-A
Experimental: IC50 values were determined for the test compounds and used to explore the structure-activity relationships (SAR). […] This cell line was registered in Sanofi-Aventis cell line bank. […] Protein concentration was determined with Bio-Rad protein assay (Cat No 500-0006). […] The composition of the binding assay buffer was determined in a course of detailed optimization procedure. […] The radioactivity retained on the filters was measured by a Wizard 1470 Automatic Gamma counter. […]
pIC50: −log10 of the molar value.
Experimental readout: pIC50

# Molecule, pIC50
data = [
    ("Cc1cc([C@@H](C)N(Cc2ccc(OCCN3C(=O)CCC3=O)c(C)c2)[C@H]2C[C@@H](C(=O)O)C2)ccc1Cl [Example 129]", 6.98),
    ("COc1cc(CN(C[C@H]2CC[C@H](C(=O)O)C2)[C@@H](C)c2ccc(Cl)cc2)ccc1OCCN1C(=O)CCC1=O [Example 100]", 6.97),
    ("CCC(c1ccc2c(c1)CCO2)N(Cc1ccc(OCCN2C(=O)CN(C)C2=O)c(OC)c1)C[C@H]1CC[C@H](C(=O)O)CC1 (some centres unmarked) [Example 28]", 7.09),
    ("CCC(c1ccc2c(c1)CCO2)N(Cc1ccc(OCCN2C(=O)CCC2=O)c(OC)c1)C[C@H]1CC[C@H](C(=O)O)CC1 (some centres unmarked) [Example 18]", 7.19),
    ("Cc1cc(CN(C[C@H]2CC[C@H](C(=O)O)CC2)[C@H]2CCc3cc(Cl)ccc32)ccc1OCCN1C(=O)CCC1=O [Example 30]", 7.28),
    ("C[C@@H](c1ccc(Cl)cc1)N(Cc1ccc(OCCN2C(=O)CCC2=O)c(Cl)c1)C[C@H]1CC[C@H](C(=O)O)CC1 [Example 32]", 6.91),
    ("CCc1cc(CN(C[C@H]2CC[C@H](C(=O)O)CC2)[C@H](C)c2ccc(Cl)c(F)c2)ccc1OCCN1C(=O)CCC1=O [Example 90]", 6.31),
    ("C[C@@H](c1ccc(Cl)cc1)N(Cc1ccc(OCCN2C(=O)CCC2=O)cc1)C[C@H]1CC[C@H](C(=O)O)CC1 [Example 79]", 6.81),
]

P. COc1cc(CN(C[C@H]2CC[C@H](C(=O)O)CC2)[C@@H](C)c2ccc(Cl)cc2)ccc1CCCN1C(=O)CN(C)C1=O [Example 51]
Q. COc1cc(CN(C[C@H]2CC[C@@H](C(=O)O)CC2)C2CCc3cc(Cl)ccc32)ccc1OCCN1C(=O)CCC1=O (some centres unmarked) [Example 13]
R. Cc1cc(CN(C[C@H]2CC[C@H](C(=O)O)CC2)C(C)c2ccc(Cl)c(Cl)c2)ccc1OCCN1C(=O)CCC1=O (some centres unmarked) [Example 78]
S. COc1cc(CN(C[C@H]2CC[C@H](C(=O)O)CC2)C2CCc3c2ccc(Cl)c3C)ccc1OCCN1C(=O)CCC1=O (some centres unmarked) [Example 43]
Exercise: Descending sort on pIC50 required. Form entry: ranked labels (order as requested).
Solution: S, P, R, Q
(S: 7.17, P: 6.80, R: 6.57, Q: 5.78)
